Recorded values, source paper PMC4081100.

Biological target: GST-ATAF1 NAC domain (Arabidopsis thaliana, UniProt Q39013 7-158)
Sequence: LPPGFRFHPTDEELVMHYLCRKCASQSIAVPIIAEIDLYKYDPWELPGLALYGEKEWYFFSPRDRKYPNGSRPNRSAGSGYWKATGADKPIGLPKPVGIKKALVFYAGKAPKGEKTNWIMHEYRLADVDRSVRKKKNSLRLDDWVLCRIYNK
Assay: universal protein binding microarray (PBM); high values mean tight binding
Settings: protein: recombinant; tags: GST; chain copies: 2; dsDNA, one strand shown
Documented binding signal across a set of sequences
// return numeric value only (unit: E-score, not printed)

Consider the worked cases shown below.
ACGCAAGA ... 0.156
TACGTCAA ... 0.291
ACGTAATC ... 0.38
ACGCAACA ... 0.292
ATTACGTG ... 0.372
GTTAAGGA ... 0.11
GTTTGACA ... 0.101
CGTGCACG ... 0.304

// binding signal lookup, key: CACGTAAC
0.436

// binding signal lookup, key: CGAGGAAA
0.152

----------
Molecular target: GST-ANAC055(1-171) (Arabidopsis thaliana, UniProt Q9LDY8 1-171)
Sequence: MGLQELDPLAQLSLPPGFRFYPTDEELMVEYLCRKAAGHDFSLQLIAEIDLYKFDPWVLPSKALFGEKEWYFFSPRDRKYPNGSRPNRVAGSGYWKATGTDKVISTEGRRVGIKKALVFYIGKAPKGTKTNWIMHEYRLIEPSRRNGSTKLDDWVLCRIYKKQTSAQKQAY
Assay: universal protein binding microarray (PBM); high values mean tight binding
Settings: protein: recombinant; tags: GST; chain copies: 2; dsDNA, one strand shown
MEASUREMENT_KIND: binding signal (E-score)
// return numeric value only (unit: E-score, not printed)

Consider the worked cases shown below.
TACCTTAA ... 0.0879
AAGTAAAG ... 0.168
AAGACCAA ... 0.172
ACGTAACC ... 0.412
ACGCAAGG ... 0.106

// binding signal lookup, key: ATTGAGTA
0.176

// binding signal lookup, key: TGCGTAAA
0.131

// binding signal lookup, key: AGAAGCAA
0.119

----------
Documented binding signal across a set of sequences
Target: GST-ANAC092(1-176) (Arabidopsis thaliana, UniProt Q9FKA0 1-176)
Sequence: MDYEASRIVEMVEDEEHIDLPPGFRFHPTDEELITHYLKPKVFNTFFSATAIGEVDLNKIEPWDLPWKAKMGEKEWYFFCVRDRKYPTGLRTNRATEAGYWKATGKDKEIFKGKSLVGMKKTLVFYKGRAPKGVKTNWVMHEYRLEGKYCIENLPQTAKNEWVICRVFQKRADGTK
Assay: universal protein binding microarray (PBM); transcription factors of Arabidopsis thaliana; high values mean tight binding
Conditions: protein: recombinant; tags: GST; chain copies: 2; dsDNA, one strand shown
// return numeric value only (unit: E-score, not printed)

Consider the worked cases shown below.
ATGCGTGC ... 0.429
ACACGCAA ... 0.498
TAGCGTGA ... 0.441

What binding signal appears in the records for this sequence with GST-ANAC092(1-176) (Arabidopsis thaliana, UniProt Q9FKA0 1-176)? ATACGGCA
0.419

What binding signal appears in the records for this sequence with GST-ANAC092(1-176) (Arabidopsis thaliana, UniProt Q9FKA0 1-176)? ACGCGACC
0.283

What binding signal appears in the records for this sequence with GST-ANAC092(1-176) (Arabidopsis thaliana, UniProt Q9FKA0 1-176)? ACACGTCA
0.484

What binding signal appears in the records for this sequence with GST-ANAC092(1-176) (Arabidopsis thaliana, UniProt Q9FKA0 1-176)? AATTGCGT
0.451

What binding signal appears in the records for this sequence with GST-ANAC092(1-176) (Arabidopsis thaliana, UniProt Q9FKA0 1-176)? ACGTCACT
0.383
